- Tested on: Jurkat
- protocol-notes: Cytotoxicity against human Jurkat cells after 96 hrs by SYBR green assay in presence of pantothenic acid
- Format: cell-based
IC50 values for the compounds below.
measure: IC50 (µM)

CC(C)(CO)[C@@H](O)C(=O)NCCCC(=O)NCCc1ccccc1 : 99
CCCCCNC(=O)CCCNC(=O)[C@H](O)C(C)(C)CO : 192
CCCCCCNC(=O)CNC(=O)[C@H](O)C(C)(C)CO : 126
CC(C)(CO)[C@@H](O)C(=O)NCCCC(=O)NCC1CCCCC1 : 113
CC(C)(CO)[C@@H](O)C(=O)NCCCC(=O)NCc1ccc2c(c1)OCO2 : 23
CC(C)(CO)[C@@H](O)C(=O)NCC(=O)NCCc1ccccc1 : 53

###

- Test system: pantetheinase
- protocol-notes: Drug metabolism of the compound assessed as compound hydrolysis at 200 uM after 10 mins by fluorescence assay in presence of recombinant human pantetheinase
- Type: physicochemical
- test-settings: read-out: Drug metabolism
measure: metabolised at 10 min, 200 µM (%)

CCCCCCCNC(=O)CCCNC(=O)[C@H](O)C(C)(C)CO : 5
CCCCNC(=O)CNC(=O)[C@H](O)C(C)(C)CO : 25
CC(C)(CO)[C@@H](O)C(=O)NCCCC(=O)NCc1ccc2c(c1)OCO2 : 5
CN(C)c1cccc2c(S(=O)(=O)NCCCCCNC(=O)CNC(=O)[C@H](O)C(C)(C)CO)cccc12 : 5
CCCCNC(=O)CCCNC(=O)[C@H](O)C(C)(C)CO : 25
CC(C)(CO)[C@@H](O)C(=O)NCC(=O)NCc1ccc2c(c1)OCO2 : 5
CC(C)(CO)[C@@H](O)C(=O)NCCCC(=O)NCC1CC1 : 5
CC(C)(CO)[C@@H](O)C(=O)NCC(=O)NCC1CCCCC1 : 5
COc1ccc(CNC(=O)CNC(=O)[C@H](O)C(C)(C)CO)cc1 : 5
CCCCCCNC(=O)CNC(=O)[C@H](O)C(C)(C)CO : 5
CCCCCCNC(=O)CCCNC(=O)[C@H](O)C(C)(C)CO : 5

###

- Test system: Plasmodium falciparum
- protocol-notes: Antiplasmodial activity against intraerythrocytic Plasmodium falciparum 3D7 infected in human erythrocytes in fresh RPMI-1640 culture medium assessed as parasite growth inhibition after 96 hrs by microscopic analysis
- Assay type: functional, organism-based
- test-settings: 3D7, 96 h
pIC50: −log10 of the molar value.
measure: pIC50

CC(C)(CO)[C@@H](O)C(=O)NCCC(=O)NCc1ccc(C(F)(F)F)cc1 : 3.97
CC(C)(CO)[C@@H](O)C(=O)NCC(=O)NCC1CC1 : 5.19
CCCCCNC(=O)CNC(=O)[C@H](O)C(C)(C)CO : 5.15
CC(C)(CO)[C@@H](O)C(=O)NCC(=O)NCC1CCCCC1 : 3.79
CCCCCCNC(=O)CCNC(=O)[C@H](O)C(C)(C)CO : 3.87
CCCCCCNC(=O)CNC(=O)[C@H](O)C(C)(C)CO : 5.33
CC(C)(CO)[C@@H](O)C(=O)NCCCC(=O)NCC1CCCCC1 : 5.68
CC(C)(CO)[C@@H](O)C(=O)NCC(=O)NCCc1ccccc1 : 5.47
CC(C)(CO)[C@@H](O)C(=O)NCCCC(=O)NCC1CC1 : 4.92

###

pIC50 values for the molecules below.
- Tested on: Plasmodium falciparum
- protocol-notes: Antiplasmodial activity against intraerythrocytic Plasmodium falciparum 3D7 infected in human erythrocytes in fresh RPMI-1640 culture medium assessed as parasite growth inhibition after 96 hrs by microscopic analysis in presence of pantetheinase
- Type: functional, organism-based
- test-settings: 3D7, 96 h
pIC50: −log10 of the molar value.
measure: pIC50

CC(C)(CO)[C@@H](O)C(=O)NCCCC(=O)NCc1ccc2c(c1)OCO2 : 4.06
CC(C)(CO)[C@@H](O)C(=O)NCC(=O)NCc1cccc(C(F)(F)F)c1 : 3.75
CC(C)(CO)[C@@H](O)C(=O)NCC(=O)NCCc1ccccc1 : 3.87
CCCCCNC(=O)CCCNC(=O)[C@H](O)C(C)(C)CO : 3.71
CCCCCNC(=O)CNC(=O)[C@H](O)C(C)(C)CO : 3.85
CN(C)c1cccc2c(S(=O)(=O)NCCCCCNC(=O)CNC(=O)[C@H](O)C(C)(C)CO)cccc12 : 3.80
CC(C)(CO)[C@@H](O)C(=O)NCC(=O)NCc1ccc(C(F)(F)F)cc1 : 4.24
CC(C)(CO)[C@@H](O)C(=O)NCC(=O)NCC1CC1 : 3.74
CCSCCNC(=O)CCCNC(=O)[C@H](O)C(C)(C)CO : 3.77
COc1ccc(CNC(=O)CNC(=O)[C@H](O)C(C)(C)CO)cc1 : 3.72
CCSCCNC(=O)CNC(=O)[C@H](O)C(C)(C)CO : 3.70
CCCCCCNC(=O)CCCNC(=O)[C@H](O)C(C)(C)CO : 3.70
CCCCCCNC(=O)CNC(=O)[C@H](O)C(C)(C)CO : 3.98
CC(C)(CO)[C@@H](O)C(=O)NCCCC(=O)NCCc1ccccc1 : 3.86

###

- Tested on: Plasmodium falciparum
- protocol-notes: Antiplasmodial activity against intraerythrocytic Plasmodium falciparum 3D7 infected in human erythrocytes in fresh RPMI-1640 culture medium assessed as parasite growth inhibition after 96 hrs by microscopic analysis
- Type: functional, organism-based
- test-settings: 3D7, 96 h
pIC50: −log10 of the molar value.
pIC50 values for the compounds below.
measure: pIC50

CC(C)(CO)[C@@H](O)C(=O)NCCC(=O)NCc1ccc(OC(F)(F)F)cc1 : < 3.70
CC(C)(CO)[C@@H](O)C(=O)NCCC(=O)NCC1CCCCC1 : < 3.70
CCCCCCCNC(=O)CCNC(=O)[C@H](O)C(C)(C)CO : < 3.70
CN(C)c1cccc2c(S(=O)(=O)NCCCCCNC(=O)CCNC(=O)[C@H](O)C(C)(C)CO)cccc12 : < 3.70
CC(C)(CO)[C@@H](O)C(=O)NCCC(=O)NCc1cccc(C(F)(F)F)c1 : < 3.70
CC(C)(CO)[C@@H](O)C(=O)NCCC(=O)NCc1ccccc1 : < 3.70
CC(C)CCNC(=O)CCNC(=O)[C@H](O)C(C)(C)CO : < 3.70
COc1cccc(CNC(=O)CCNC(=O)[C@H](O)C(C)(C)CO)c1 : < 3.70

###

- System: Plasmodium falciparum
- protocol-notes: Antiplasmodial activity against intraerythrocytic Plasmodium falciparum 3D7 infected in human erythrocytes in fresh RPMI-1640 culture medium assessed as parasite growth inhibition after 96 hrs by microscopic analysis in presence of pantetheinase
- Type: functional, organism-based
- test-settings: 3D7, 96 h
IC50 values for the compounds below.
measure: IC50

COc1cccc(CNC(=O)CCCNC(=O)[C@H](O)C(C)(C)CO)c1 : > 200 µM
CC(C)(CO)[C@@H](O)C(=O)NCCCC(=O)NCC1CCCCC1 : > 200 µM
CC(C)(CO)[C@@H](O)C(=O)NCCCC(=O)NCc1ccc(OC(F)(F)F)cc1 : > 200 µM
CC(C)(CO)[C@@H](O)C(=O)NCC(=O)NCc1ccc(OC(F)(F)F)cc1 : > 200 µM
CC(C)(CO)[C@@H](O)C(=O)NCCCC(=O)NCc1ccccc1 : > 200 µM
CC(C)(CO)[C@@H](O)C(=O)NCC(=O)NCc1ccc2c(c1)OCO2 : > 200 µM
CC(C)(CO)[C@@H](O)C(=O)NCC(=O)NCc1ccccc1 : > 200 µM
COc1ccc(CNC(=O)CCCNC(=O)[C@H](O)C(C)(C)CO)cc1 : > 200 µM
